# experiment.summary: Metabolic stability in human liver microsomes assessed as compound remaining at 1 uM after 120 mins in presence of G-6-P, G-6-PDH, MgCl2 and NADP+ by LC-MS/MS analysis (reference value: 100%)
Listing of entries alongside the reported remaining at 2 h, 1 µM.

structure.smiles.string: c1cncc(-c2ccc3c(N4CCN(Cc5noc(C6CCCC6)n5)CC4)ccnc3c2)c1
u: %
remaining at 2 h, 1 µM: 21.9

structure.smiles.string: CC(C)c1ccc(-c2nc(CN3CCN(c4ccnc5cc(Cl)ccc45)CC3)no2)cc1
u: %
remaining at 2 h, 1 µM: 39.7

structure.smiles.string: Cc1cccc(-c2nc(CN3CCN(c4ccnc5cc(-c6cccnc6)ccc45)CC3)no2)c1C
u: %
remaining at 2 h, 1 µM: 18.1

structure.smiles.string: CC(C)c1ccc(-c2nc(CN3CCN(c4ccnc5cc(-c6cccnc6)ccc45)CC3)no2)cc1
u: %
remaining at 2 h, 1 µM: 23

* * *

# experiment.summary: Metabolic stability in human liver microsomes assessed as compound remaining at 1 uM after 60 mins in presence of G-6-P, G-6-PDH, MgCl2 and NADP+ by LC-MS/MS analysis (reference value: 100%)
measured.quantity: remaining at 1 h, 1 µM (%)

structure.smiles.string: CC(C)c1ccc(-c2nc(CN3CCN(c4ccnc5cc(-c6cccnc6)ccc45)CC3)no2)cc1
observed.result: 40.1
//
structure.smiles.string: c1cncc(-c2ccc3c(N4CCN(Cc5noc(C6CCCC6)n5)CC4)ccnc3c2)c1
observed.result: 38
//
structure.smiles.string: CC(C)c1ccc(-c2nc(CN3CCN(c4ccnc5cc(Cl)ccc45)CC3)no2)cc1
observed.result: 55.3
//
structure.smiles.string: Cc1cccc(-c2nc(CN3CCN(c4ccnc5cc(-c6cccnc6)ccc45)CC3)no2)c1C
observed.result: 31.7

Where do these numbers come from? They come from ChEMBL document CHEMBL4308875.
